- MEASURED_ON: PPARγ-LBD (UniProt ID: P37231-2) (Homo sapiens, UniProt P37231)
- Construct: PPARγ-LBD (UniProt ID: P37231-2) was expressed and purified in insect system; made in house
- Sequence (P37231 238-503 limits assumed): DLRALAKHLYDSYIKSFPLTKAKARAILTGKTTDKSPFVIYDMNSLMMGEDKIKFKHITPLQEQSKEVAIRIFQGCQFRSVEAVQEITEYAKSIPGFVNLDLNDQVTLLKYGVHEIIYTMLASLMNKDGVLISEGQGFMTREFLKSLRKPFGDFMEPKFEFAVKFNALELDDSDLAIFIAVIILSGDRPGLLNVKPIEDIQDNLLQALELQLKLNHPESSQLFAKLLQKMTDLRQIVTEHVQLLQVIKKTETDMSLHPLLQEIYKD
- ASSAY_OVERVIEW: PPARγ-SMRT recruitment assay (TR-FRET)
- Type: biochemical
- RUN_CONDITIONS: 1 h; max value of % Activation; high control 10 uM control compound, low control 1% DMSO; read-out: Top %
READOUT_LABEL: Emax (%)
Your answer is read as %, so omit the unit and give the number.

Could you please provide reported Emax for CS(=O)(=O)c1ccc(C#N)cc1-c1cc(=O)c2c(F)c(C3CC3)c(F)cc2[nH]1 [Example 13] ? Thanks!
187

Quickly give me recorded Emax for COc1ccccc1C#Cc1c(F)cc2[nH]c(-c3cc(C#N)ccc3S(C)(=O)=O)cc(=O)c2c1F [Example 30]
283

Please give the documented Emax of CS(=O)(=O)c1ccc(C#N)cc1-c1cc(=O)c2c(F)c(C#Cc3ccccc3Cl)c(F)cc2[nH]1 [Example 33]
502

Kindly indicate its recorded Emax. Item: CS(=O)(=O)c1ccc(C#N)cc1-c1cc(=O)c2c(F)c(C#CCO)c(F)cc2[nH]1 [Example 3]
300

Tell me measured Emax for CS(=O)(=O)c1ccc(C#N)cc1-c1cc(=O)c2c(F)c(C#CC3CCOC3)c(F)cc2[nH]1 (stereo not drawn) [Example 34] please.
290

Look up Emax of Cn1cc(C#Cc2c(F)cc3[nH]c(-c4cc(C#N)ccc4S(C)(=O)=O)cc(=O)c3c2F)cn1 [Example 12] and report it.
181

Tell me measured Emax for Cc1noc(C)c1C#Cc1c(F)cc2[nH]c(-c3cc(C#N)ccc3S(C)(=O)=O)cc(=O)c2c1F [Example 35] please.
243

Please supply the value of reported Emax for the item CC1(C#Cc2c(F)cc3[nH]c(-c4cc(C#N)ccc4S(C)(=O)=O)cc(=O)c3c2F)COC1 [Example 45]
249

Write down Emax measured for item CS(=O)(=O)c1ccc(C#N)cc1-c1cc(=O)c2c(F)c(C#CC3COC3)c(F)cc2[nH]1 [Example 24]
197

Provide Emax value for the following molecule: CS(=O)(=O)c1ccc(C#N)cc1-c1cc(=O)c2c(F)c(/C=C/c3ccccc3)c(F)cc2[nH]1 [Example 53]
650

Please look at this molecule and report its Emax: CC(C)(O)C#Cc1c(F)cc2[nH]c(-c3cc(C#N)ccc3S(C)(=O)=O)cc(=O)c2c1F [Example 1]
495

Fill in reported Emax for this entry: CC(C)(N)C#Cc1c(F)cc2[nH]c(-c3cc(C#N)ccc3S(C)(=O)=O)cc(=O)c2c1F [Example 8]
208

Consider the molecule C[C@H](O)C#Cc1c(F)cc2[nH]c(-c3cc(C#N)ccc3S(C)(=O)=O)cc(=O)c2c1F [Example 5] . State its measured Emax.
367

Tell me measured Emax for CS(=O)(=O)c1ccc(C#N)cc1-c1cc(=O)c2c(F)c(C#Cc3ccccc3)c(F)cc2[nH]1 [Example 11] please.
435

# return recorded Emax for input CS(=O)(=O)c1ccc(C#N)cc1-c1cc(=O)c2c(F)c(C#Cc3ccccc3C#N)c(F)cc2[nH]1 [Example 42]
231

Entry CS(=O)(=O)c1ccc(C#N)cc1-c1cc(=O)c2c(F)c(C#CC3(O)COC3)c(F)cc2[nH]1 [Example 7] needs its Emax filled in; supply it.
207

Hello, please tell me recorded Emax for this one: CS(=O)(=O)c1ccc(C#N)cc1-c1cc(=O)c2c(F)c(C#CC3CC3)c(F)cc2[nH]1 [Example 9]
359

Please give measured Emax of the following entry: Cc1ccccc1C#Cc1c(F)cc2[nH]c(-c3cc(C#N)ccc3S(C)(=O)=O)cc(=O)c2c1F [Example 17]
613

Output Emax of CC(C)(F)C#Cc1c(F)cc2[nH]c(-c3cc(C#N)ccc3S(C)(=O)=O)cc(=O)c2c1F [Example 23]
316

Return Emax (reported value) for this molecule: C[C@@H](O)C#Cc1c(F)cc2[nH]c(-c3cc(C#N)ccc3S(C)(=O)=O)cc(=O)c2c1F [Example 4]
200

Please indicate Emax recorded for Cc1ncccc1C#Cc1c(F)cc2[nH]c(-c3cc(C#N)ccc3S(C)(=O)=O)cc(=O)c2c1F [Example 29]
357

Input Cc1cccc(C#Cc2c(F)cc3[nH]c(-c4cc(C#N)ccc4S(C)(=O)=O)cc(=O)c3c2F)n1 [Example 31] , output reported Emax.
181

Please list Emax recorded for the molecule CC#Cc1c(F)cc2[nH]c(-c3cc(C#N)ccc3S(C)(=O)=O)cc(=O)c2c1F [Example 19]
208

Consider the molecule CS(=O)(=O)c1ccc(C#N)cc1-c1cc(=O)c2c(F)c(C#Cc3ccccc3C(F)(F)F)c(F)cc2[nH]1 [Example 44] and give its recorded Emax.
286

Hello, please tell me recorded Emax for this one: CS(=O)(=O)c1ccc(C#N)cc1-c1cc(=O)c2c(F)c(C#Cc3ccccc3F)c(F)cc2[nH]1 [Example 51]
447

Give the reported value of Emax for this record: CCC#Cc1c(F)cc2[nH]c(-c3cc(C#N)ccc3S(C)(=O)=O)cc(=O)c2c1F [Example 20]
210

Hello, please tell me recorded Emax for this one: C#Cc1c(F)cc2[nH]c(-c3cc(C#N)ccc3S(C)(=O)=O)cc(=O)c2c1F [Example 2]
311

Please list Emax recorded for the molecule CS(=O)(=O)c1ccc(C#N)cc1-c1cc(=O)c2c(F)c(C#CCCO)c(F)cc2[nH]1 [Example 6]
266

Given the molecule COc1nccnc1C#Cc1c(F)cc2[nH]c(-c3cc(C#N)ccc3S(C)(=O)=O)cc(=O)c2c1F [Example 43] , write its reported Emax.
237

Provide only the value of recorded Emax for CCS(=O)(=O)c1ccc(C#N)cc1-c1cc(=O)c2c(F)c(C#CC3COC3)c(F)cc2[nH]1 [Example 46]
174
